Exercise: state measured melting point for each of the compounds provided.

Consider the reported melting point for these compounds:
Input CC(=O)N[C@H]1CC[C@H](CCN2CCN(c3ncc(C)c4occc34)CC2)CC1 . Output melting point: 208 °C

Input CC1(C)OC(=O)Nc2ccc(-c3ccc(C#N)s3)cc21 . Output melting point: 264 to 266 °C

Input CCOC(=O)c1ccc(/C=C(\C)c2ccc3c(c2)OCCCC3)cc1 . Output melting point: 71 to 72 °C

Input CCOc1nc2ccc(Cl)cc2c(-c2ccccc2)c1NC(=O)Nc1ccc(F)cc1F . Output melting point: 238 to 239 °C

Input Cc1ccc2c(c1)O[C@@H](CN1CCC(CNC(=O)c3cccnc3N)CC1)CO2 . Output melting point: 143 to 146 °C

Input CCCNC(=O)c1ccc2c(c1)N(C(C)CN1CCCCCC1)c1ccccc1S2 (racemic) . Output melting point: 113 °C

List melting point for every entry below, keeping the order given.
1. CC1CN(Cc2ccccc2)CC(NC(=O)c2n[nH]c3ccccc23)CN1C (centres undefined)
2. CC(C)N1C(=O)c2cnc(-c3ccccc3)nc2N(C(=O)CCl)c2ccccc21
3. CC1Oc2ccc(CN3CCC(c4ccc(C(F)(F)F)cc4)CC3)cc2NC1=O (centres undefined)

a:
162 to 163 °C
204 to 205 °C
217 to 218 °C

====

Exercise: state measured melting point for each of the compounds provided.

Input CCN(CC)CCCN1C(=O)NC(Cc2c[nH]c3ccc(Cl)cc23)C1=O (stereo unspecified) . Output melting point: 186 °C

List melting point for every entry below, keeping the order given.
1. Cc1noc(NS(=O)(=O)c2ccc(Cl)cc2Cl)c1Br
2. CCCCS(=O)(=O)c1ncn(C(=O)N(CCC)CCC)n1
3. N#Cc1ccc2c(c1)C=CCCO2

a:
["138 to 141 °C", "38.5 to 39.5 °C", "69 to 71 °C"]

List melting point for every entry below, keeping the order given.
1. COC(=O)Cc1ccc2nc(Nc3ccccc3)oc2c1
2. CC(C)n1nc(C#Cc2ccccc2)ccc1=O
3. CCOC(=O)c1cnc2c(cnn2CCC(C)C)c1O
4. O=C(O)c1ncsc1S
5. COC(=O)c1nc(-c2ccccc2)n2c1CN=C(c1ccccc1Cl)c1cc(Cl)ccc1-2

a:
155 to 157 °C
75.5 to 77 °C
65 to 70 °C
156 to 157 °C
272 to 275 °C

====

Exercise: state measured melting point for each of the compounds provided.

Consider the reported melting point for these compounds:
Input COC(=O)c1cccc2c1c(S(=O)(=O)NC(C)(C)C)nn2C . Output melting point: 189 to 190 °C

Input N#Cc1cc(Cc2ccccc2Cl)ccc1N . Output melting point: 79 to 80 °C

Input CC(C)(C)c1csc(-c2cc3cc(CCl)ccc3o2)n1 . Output melting point: 117 to 119 °C

Input CCOC(=O)c1nc2scc(COCc3ccc(C#N)cc3)c2c(=O)[nH]1 . Output melting point: 236 to 237 °C

Input CC1=C(Cc2ccc(-c3ccc(N(C)C)cc3)cc2)C(=O)c2ccccc2C1=O . Output melting point: 170 to 171 °C

List melting point for every entry below, keeping the order given.
1. COc1ccc2cc3c(c(-c4ccc(OC(F)(F)F)cc4)c2c1)C(=O)NC3=O
2. CCNC1=NS(=O)(=O)c2cccc(F)c21
3. CCOC(=O)COc1cc(OCC(=O)OCC)c2c(C)c(Cc3ccccc3)c(=O)n(Cc3ccccc3)c2c1
4. O=C(O)c1cnc(C(F)(F)F)nc1C(F)(F)F
5. CCOC(=O)C(O)CSc1ccc(-c2ccccc2)cc1 (stereo not drawn)
6. Cc1cc(NC(=O)NN(c2ccccc2)c2cccc(C#N)c2)ccc1N1CCOCC1
7. O=C1CCC(N2Cc3cc(CNC(=O)Nc4ccc(-c5ncc[nH]5)cc4)ccc3C2=O)C(=O)N1 (stereo not drawn)

a:
["282 to 284 °C", "236 to 238 °C", "113 to 116 °C", "59 °C", "102 °C", "115 to 116 °C", "190 to 192 °C"]

List melting point for every entry below, keeping the order given.
1. COc1cc(-c2ccccc2)c(C=O)cc1CC(=O)O
2. COc1ccc(CC(C)NCC(O)c2cccc(Cl)c2F)cc1 (stereo not drawn)
3. COC(=O)C1Cc2cc(OC)ccc2N1S(=O)(=O)c1ccc(I)cc1 (stereo not drawn)

a:
1: 174 to 175 °C; 2: 95 to 101 °C; 3: 154 °C

List melting point for every entry below, keeping the order given.
1. CCOC(=O)c1cnn(-c2ccc(F)cc2)c1C
2. CNC(=O)[C@@H](N[C@@H](C)c1ccccc1)C(C)(C)C
3. COc1ccc(-n2nc(Sc3cccc(C)c3)c(C)c(C#N)c2=O)cc1

a:
48 to 49 °C
107 to 108 °C
121 to 122 °C
